Biological target: T1, RecE564 Y785A (Escherichia coli K12, UniProt P15032 564-866, Y785A)
T1 sequence: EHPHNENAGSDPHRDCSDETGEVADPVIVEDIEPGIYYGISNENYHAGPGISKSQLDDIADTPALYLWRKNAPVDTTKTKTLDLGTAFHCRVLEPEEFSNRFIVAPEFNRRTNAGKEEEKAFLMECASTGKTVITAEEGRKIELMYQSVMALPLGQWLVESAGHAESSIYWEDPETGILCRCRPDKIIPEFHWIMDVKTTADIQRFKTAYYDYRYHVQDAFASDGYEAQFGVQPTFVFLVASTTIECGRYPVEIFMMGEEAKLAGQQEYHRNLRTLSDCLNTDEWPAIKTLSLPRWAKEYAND
Test: fluorescence anisotropy
measured quantity: pKd
Quick note: pKd values are minus log10 of concentrations in mol/L.

Q: Entry F25 (dsDNA) DNA 1: TAGAGCTTAATTGCTGAATCTGGTG DNA 2: CACCAGATTCAGCAATTAAGCTCTA : reported pKd = ?
Result: 7.01
